species: Rattus norvegicus; assay: Open TG-GATES - Regimen: Daily Repeat; assay type: toxicity, organism-based, Sprague-Dawley; set-up: regimen Daily Repeat, gender Male, age 6 weeks; conditions: in vivo, po, 0 mg/kg, 72 h, tissue Plasma, route gavage, dose level Control, time 3 day
Measure Name: DBIL (mg/dL)

[[record]]
compound = "CC1=C(/C=C/C(C)=C/C=C/C(C)=C/CO)C(C)(C)CCC1"
unit_text = "mg/dL"
quantitative_readout = 0

[[record]]
compound = "COc1ccc2[nH]c([S+]([O-])Cc3ncc(C)c(OC)c3C)nc2c1 (centres undefined)"
unit_text = "mg/dL"
quantitative_readout = 0.07

[[record]]
compound = "NC(N)=Nc1nc(CSCCC(N)=NS(N)(=O)=O)cs1"
unit_text = "mg/dL"
quantitative_readout = 0.086

[[record]]
compound = "COC1=CC(=O)C[C@@H](C)[C@]12Oc1c(Cl)c(OC)cc(OC)c1C2=O"
unit_text = "mg/dL"
quantitative_readout = 0.1

